Attribution: ChEMBL document CHEMBL1201862

The entries below are paired with their reported GI50.
- System: OVCAR-4
- Test details: NCI tumour cell line growth inhibition, 48 h
Active and inactive are the calls of the source. Cut-off read from the data, not from the text of the source: active = GI50 up to about 1.1 µM and inactive = higher.

As a guide, the following entries are already answered.
CCN(CC)c1ccc(/C=C/C=C2C(=O)NC(=S)NC2=O)cc1; > 100 µM (inactive)
CCOC(=O)c1cc(C2CCN(CC(C)CC)C2=S)c(-c2cc(C)no2)[nH]1 (configuration not stated); > 100 µM (inactive)
Cc1cc(Br)cc(C)c1NC(=O)C(=O)C(C(=O)c1ccc2ccccc2c1)C1OC(=O)c2ccccc21 (configuration not stated); 5.14 µM (inactive)
Cc1ccc(S(=O)(=O)N2CCCN(S(=O)(=O)c3ccc(C)cc3)CCN(S(=O)(=O)c3ccc(C)cc3)CCCSCC2)cc1; > 100 µM (inactive)
C=CCNC(=O)N1CC(C)C(=O)Nc2ccccc21 (configuration not stated); > 100 µM (inactive)
COc1ccc2nc(NC(=O)C(=O)C(C#N)c3ccc(Cl)c(Cl)c3)sc2c1 (configuration not stated); > 100 µM (inactive)
CC(C)CCNC(=O)C(CC(C)C)NC(=O)[C@H]1O[C@@H]1C(=O)O (some centres not stated); > 100 µM (inactive)
CC1(C)CCC2(C(=O)O)C(O)CC3(C)C(=CCC4C5(C)CCC(OC6OCC(O)C(O)C6OC6OCC(O)C(O)C6OC6OCC(O)C(OC7OC(CO)C(O)C(O)C7O)C6O)C(C)(C)C5CCC43C)C2C1 (configuration not stated); 28.5 µM (inactive)

Q: Read off the recorded GI50 for `COc1ccc2cc(/C=N/NC(=O)Nc3ccccc3)ccc2c1`
Result: > 100 µM (inactive)

Q: Look up and state reported GI50 for C/C=C(C)/C=C/CC(C)CCC=C(C)C (configuration not stated)
Result: 92.9 µM (inactive)

Q: In one line, give reported GI50 of the entry `Cc1ccc(S(=O)(=O)N/N=C/c2c(O)ccc3ccccc23)cc1` .
Result: 28.8 µM (inactive)

Q: Answer with the recorded GI50 of `CCCCn1c(N)c(-c2nc3ccccc3o2)sc1=S` only.
Result: 5.81 µM (inactive)
